# assayed_system: GSK3β (Homo sapiens (Human))
# Sequence (P49841 whole entry): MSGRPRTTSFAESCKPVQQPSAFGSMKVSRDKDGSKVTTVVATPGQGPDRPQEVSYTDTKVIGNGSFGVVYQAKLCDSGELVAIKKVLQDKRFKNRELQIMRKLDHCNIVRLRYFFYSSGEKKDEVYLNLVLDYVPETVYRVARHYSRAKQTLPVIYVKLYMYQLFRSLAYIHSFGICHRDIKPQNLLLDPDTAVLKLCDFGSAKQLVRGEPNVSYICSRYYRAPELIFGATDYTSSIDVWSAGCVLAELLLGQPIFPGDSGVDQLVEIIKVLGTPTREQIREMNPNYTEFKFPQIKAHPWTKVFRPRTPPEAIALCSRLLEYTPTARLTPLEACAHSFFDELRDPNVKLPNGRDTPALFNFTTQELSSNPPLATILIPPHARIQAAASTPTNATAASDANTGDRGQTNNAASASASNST
# method: Mobility shift microfluidics assay
# Type: biochemical
# cond: 4.3 μM ATP, 60 minutes at room temperature
pIC50: −log10 of the molar value.
I'd appreciate it if you could supply pIC50 values for the items below.

Name the reported pIC50 value associated with the compound CC[C@]1(c2cccc(Cl)c2)C2=C(CC(C)(C)CC2=O)Nc2ncsc21 (single isomer, unassigned) < 4.52

What would you report for CC[C@]1(c2cccc(F)c2)C2=C(CC(C)(C)CC2=O)Nc2ncsc21 (single isomer, unassigned) ? < 4.52

What would you report for CC[C@]1(c2ccccc2)C2=C(CC(C)(C)CC2=O)Nc2ncsc21 ? < 4.52
